# experimental-target: TYK2 (Homo sapiens (Human))
# Sequence (P29597 897-1176): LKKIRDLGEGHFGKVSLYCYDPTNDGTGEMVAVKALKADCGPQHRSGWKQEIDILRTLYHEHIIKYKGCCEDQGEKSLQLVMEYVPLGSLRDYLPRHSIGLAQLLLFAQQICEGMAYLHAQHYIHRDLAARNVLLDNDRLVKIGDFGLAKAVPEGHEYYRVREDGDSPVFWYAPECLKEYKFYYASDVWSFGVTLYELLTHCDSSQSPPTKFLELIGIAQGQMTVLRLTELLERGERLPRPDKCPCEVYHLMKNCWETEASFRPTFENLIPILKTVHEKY
# run-description: JAK Caliper Enzyme Assay at 1 mM ATP, TYK2
# Format: biochemical
endpoint-name: IC50
# output: number + unit

N#CC[C@]1(n2ccc(-c3nc(-c4ccnc(N)c4)cc4ncccc34)n2)C[C@@H](C#N)C1; 7 nM
Cn1nc(-c2cc3ncccc3c(-c3ccn([C@]4(CC#N)C[C@@](C)(C#N)C4)n3)n2)cc1N; 1590 nM
N#CC[C@]1(n2ccc(-c3nc(-c4cc(CO)[nH]n4)cc4ncccc34)n2)C[C@@H](C#N)C1; 7 nM
Cn1cc(-c2cc3ncccc3c(-c3ccn(C4(CC#N)CN(S(N)(=O)=O)C4)n3)n2)cn1; 16 nM
N#CC[C@]1(n2ncc(-c3cc(-c4cccc(N)n4)cc4ncccc34)n2)C[C@@H](C#N)C1; 20 nM

response.value for `Cc1cc(-c2nc(-c3cn[nH]c3)cc3ncccc23)nn1[C@]1(CC#N)C[C@H](C#N)C1` (field: IC50) = 9 nM

`Cc1n[nH]cc1-c1cc2ncccc2c(-c2ccn([C@]3(CC#N)C[C@H](C#N)C3)n2)n1` has a reported IC50 of 32 nM

Value of IC50 reported for the compound `CO[C@H]1C[C@@](CC#N)(n2ccc(-c3nc(-c4cc(CO)n[nH]4)cc4ncccc34)n2)C1` is 45 nM

// IC50 value for `Cn1cc(-c2cc3ncccc3c(-c3ccn([C@]4(CC#N)C[C@H](C#N)C4)n3)n2)c(N)n1` : 8 nM

For record `CO[C@H]1C[C@@](CC#N)(n2ccc(-c3nc(-c4cnn(C5COC5)c4)cc4ncccc34)n2)C1` the listed IC50 is 110 nM

compound `Cc1ccc(-c2cc3ncccc3c(-c3ccn(C4(CC#N)CN(S(C)(=O)=O)C4)n3)n2)c(N)n1` , IC50 observed: 38 nM

Lab book: IC50 of `Cn1ncc(-c2cc3ncccc3c(-c3ccn([C@]4(CC#N)C[C@H](C#N)C4)n3)n2)c1N` noted as 19 nM

Record summary for N#CCC1CC(CC#N)(n2cc(-c3nc(-c4cn[nH]c4)cc4ncccc34)cn2)C1 (stereo not drawn) : reported IC50 = 14 nM

Recorded IC50 (compound `Cc1cc(-c2nc(-c3cn[nH]c3)cc3ncccc23)nn1C1(CC#N)CN(S(C)(=O)=O)C1` ): 120 nM

IC50 in this record for N#CC[C@]1(n2ccc(-c3nc(-c4ccnc(C(N)=O)n4)cc4ncccc34)n2)C[C@H](C#N)C1 [Example 244] : 424 nM

----------
# experimental-target: JAK2 (Homo sapiens (Human))
# Sequence (O60674 849-1124): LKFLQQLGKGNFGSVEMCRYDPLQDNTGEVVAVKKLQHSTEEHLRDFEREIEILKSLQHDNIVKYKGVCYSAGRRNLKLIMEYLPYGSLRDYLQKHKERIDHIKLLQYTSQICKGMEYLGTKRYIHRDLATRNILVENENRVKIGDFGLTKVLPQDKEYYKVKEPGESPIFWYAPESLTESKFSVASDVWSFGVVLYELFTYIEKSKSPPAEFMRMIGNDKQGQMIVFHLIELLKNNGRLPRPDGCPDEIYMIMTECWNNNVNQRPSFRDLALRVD
# run-description: JAK Caliper Enzyme Assay at 1 mM ATP, JAK2
# Format: biochemical
endpoint-name: IC50 (nM)
Lab book: enter the figure in nM, no units written.

Worked examples, 2 compounds total:
N#CC[C@]1(n2ncc(-c3cc(-c4nc(CO)cs4)cc4ncccc34)n2)C[C@H](C#N)C1; 649
N#CC[C@]1(n2ccc(-c3nc(-c4ccnc(N)c4)cc4ncccc34)n2)C[C@@H](C#N)C1; 32

The recorded IC50 for `Cn1cc(-c2cc3ncccc3c(-c3ccn([C@]4(CC#N)C[C@H](C#N)C4)n3)n2)cn1` is 13

----------
# experimental-target: JAK1 (Homo sapiens (Human))
# Sequence (P23458 875-1153): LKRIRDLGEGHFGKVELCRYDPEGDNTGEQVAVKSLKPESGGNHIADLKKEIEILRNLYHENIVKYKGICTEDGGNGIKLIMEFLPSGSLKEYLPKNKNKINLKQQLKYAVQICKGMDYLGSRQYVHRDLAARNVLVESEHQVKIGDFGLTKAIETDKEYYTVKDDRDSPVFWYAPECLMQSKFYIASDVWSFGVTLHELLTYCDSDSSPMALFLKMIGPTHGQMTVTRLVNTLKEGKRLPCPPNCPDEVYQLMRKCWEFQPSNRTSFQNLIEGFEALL
# run-description: JAK Caliper Enzyme Assay at 1 mM ATP, JAK1
# Assay type: biochemical
pIC50: −log10 of the molar value.
Decision: pIC50 compared against 6; not below it gives 1, below it gives -1.

Some solved entries appear below for comparison.
Cn1nc(CO)cc1-c1cc2ncccc2c(-c2ccn([C@]3(CC#N)C[C@@H](C#N)C3)n2)n1; -1
CS(=O)(=O)N1CC(CC#N)(n2ccc(-c3nc(-c4cnn(C(CO)CCl)c4)cc4ncccc34)n2)C1 (stereo not drawn); 1
N#CC[C@]1(n2ncc(-c3cc(-c4cccc(N)n4)cc4ncccc34)n2)C[C@@H](C#N)C1; 1
CS(=O)(=O)c1ccc(-c2cc3ncccc3c(-c3ccn(C4(CC#N)CN(S(C)(=O)=O)C4)n3)n2)cn1; -1
N#CCC1(n2ncc(-c3cc(-c4cc[nH]n4)cc4ncccc34)n2)CN(S(N)(=O)=O)C1; 1
Cn1ncc(-c2cc3ncccc3c(-c3ccn([C@]4(CC#N)C[C@@H](C#N)C4)n3)n2)c1CO; 1

**Query** Please check the record `N#CCC1(n2ccc(-c3nc(-c4cccnc4)cc4ncccc34)n2)CN(CC(F)(F)F)C1` and state if its pIC50 is at or above 6.
**Result** -1

**Query** Reported pIC50 at or above 6? `CCN1CC(CC#N)(n2ccc(-c3nc(-c4c[nH]nc4N)cc4ncccc34)n2)C1`
**Result** -1

**Query** Has CNC(=O)C1CC(CC#N)(n2ccc(-c3nc(-c4cc[nH]n4)cc4ncccc34)n2)C1 (stereo not drawn) a recorded pIC50 greater than or equal to 6?
**Result** -1

**Query** Decide: is the reported value of pIC50 for `CS(=O)(=O)N1CC(CC#N)(n2ccc(-c3nc(-c4cnn5cccnc45)cc4ncccc34)n2)C1` equal to or greater than 6?
**Result** -1

**Query** // inclusive: pIC50 at least 6? input: `N#CC[C@]1(n2ccc(-c3nc(-c4cc(CO)[nH]n4)cc4ncccc34)n2)C[C@@H](C#N)C1`
**Result** 1

**Query** Form field: pIC50 at least 6? Entry: `Cc1cc(-c2cc3ncccc3c(-c3ccn([C@]4(CC#N)C[C@@H](C#N)C4)n3)n2)nn1C`
**Result** -1

**Query** hey, is pIC50 for this one >= 6? `CO[C@H]1C[C@@](CC#N)(n2ccc(-c3nc(-c4cc(CO)n[nH]4)cc4ncccc34)n2)C1`
**Result** -1

**Query** Does pIC50 meet or surpass 6 for `Cn1nc(-c2cc(-c3cnn([C@]4(CC#N)C[C@@H](C#N)C4)n3)c3cccnc3c2)cc1CO` ?
**Result** -1

**Query** State whether the measured pIC50 reaches 6, counting equality as reaching it, for `CS(=O)(=O)N1CC(CC#N)(n2ccc(-c3nc(-c4cnc5[nH]c(=O)[nH]c5c4)cc4ncccc34)n2)C1`
**Result** -1

**Query** Check this compound for pIC50 at or above 6: `CNC(=O)[C@H]1C[C@](CC#N)(n2ccc(-c3nc(-c4ccn[nH]4)cc4ncccc34)n2)C1`
**Result** -1

**Query** Record N#CCC1(n2ncc(-c3cc(-c4cc(N)[nH]n4)cc4ncccc34)n2)CC(C#N)C1 (stereo not drawn) ; criterion: pIC50 no lower than 6. Met?
**Result** 1

**Query** Quick check, pIC50 >= 6? `Cc1cc(-c2nc(-c3cc[nH]n3)cc3ncccc23)nn1[C@]1(CC#N)C[C@H](C#N)C1`
**Result** 1
